The reported measurements were obtained from patent US4749703A.

Tested on: methacholine-induced ST elevation
test_description: Preventive effect on methacholine-induced ST elevation (experimental model of variant angina)
Type: in vivo, Male SD strain rats
recorded_conditions: 0.3 mg/kg, i.v.
Method: (2) Preventive effect on methacholine-induced ST elevation (effect in experimental model of variant angina) The test was carried out according to the method of Sakai et al. [cf. J. Pharmacol. Methods, 5, 325-336 (1981)]. Male SD strain rats, weighing about 500 g, were anesthetized with 60 mg/kg (i.p.) of sodium pentobarbital. Lead II electrocardiogram was recorded. […]
Counter-ions that a name gives are not always drawn.
Quick reference: peak time (preventive effect on ST elevation) of the listed items.

compound="O=C(CCCN1CCN(c2ccccc2)CC1)NC1c2ccccc2CSc2ccccc21 (centres unmarked) [6(1)]" result="5 min"
compound="COc1ccc([C@@H]2Sc3ccccc3N(CCN(C)C)C(=O)[C@@H]2OC(C)=O)cc1 [Diltiazem hydrochloride, reference compound]" result="10 min"
compound="O=C(CCCN1CCN(c2ccc(F)cc2)CC1)NC1c2ccccc2C=Cc2ccccc21 [79(3)]" result="0.5 min"
compound="O=C(CCCN1CCN(c2ccc(F)cc2)CC1)NC1c2ccccc2CSc2ccccc21 (centres unmarked) [Example 1(3)]" result="5 min"

As a next step, examine the compound that follows.
For Cc1ccc2c(c1)C(NC(=O)CCCN1CCN(c3ccc(F)cc3)CC1)c1ccccc1CS2 (centres unmarked) [2(3)] , what is its reported peak time (preventive effect on ST elevation)?
0.5 min
